Where do these numbers come from? They come from patent US20090082328A1.

SUBJECT_OF_TEST: MEK1 (Homo sapiens, UniProt Q02750)
Sequence (Q02750 whole entry): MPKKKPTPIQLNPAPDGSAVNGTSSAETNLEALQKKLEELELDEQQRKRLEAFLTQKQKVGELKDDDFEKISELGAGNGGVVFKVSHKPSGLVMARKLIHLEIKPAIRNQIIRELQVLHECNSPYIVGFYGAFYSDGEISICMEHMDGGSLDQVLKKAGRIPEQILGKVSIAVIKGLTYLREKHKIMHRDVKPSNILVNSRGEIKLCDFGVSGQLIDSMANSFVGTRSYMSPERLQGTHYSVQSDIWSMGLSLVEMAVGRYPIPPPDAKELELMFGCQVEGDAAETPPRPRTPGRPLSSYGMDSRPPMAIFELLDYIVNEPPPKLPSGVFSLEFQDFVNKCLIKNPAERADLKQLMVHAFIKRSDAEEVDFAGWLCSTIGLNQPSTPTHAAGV
pIC50: −log10 of the molar value.
RECORDED_METRIC: pIC50

Examples with their reported pIC50 follow.
{"columns": ["MOLECULE", "pIC50"],
 "data": [
  ["CS(=O)(=O)N1CCCC(COc2cc(F)cc(Nc3ccc(I)cc3F)c2C(N)=O)C1 (stereo not drawn) [Example 6.15]", "> 6.00"],
  ["Cn1cnc(S(=O)(=O)NCCCOc2cc(F)cc(Nc3ccc(I)cc3F)c2C(N)=O)c1 [Example 6.17]", "> 6.60"]
]}

Now take the following molecule into account.
pIC50 measured on NC(=O)c1c(Nc2ccc(I)cc2F)cc(F)cc1OCCC1CCCCN1 (stereo not drawn) [Example 4.5] = > 6.60
